Entries and their IC50 values follow.
Molecular target: Recombinant GST-TAG-MASTL (Homo sapiens, UniProt Q96GX5)
Construct: GST; purchased Thermo Fisher Scientific
Sequence (Q96GX5 1-879): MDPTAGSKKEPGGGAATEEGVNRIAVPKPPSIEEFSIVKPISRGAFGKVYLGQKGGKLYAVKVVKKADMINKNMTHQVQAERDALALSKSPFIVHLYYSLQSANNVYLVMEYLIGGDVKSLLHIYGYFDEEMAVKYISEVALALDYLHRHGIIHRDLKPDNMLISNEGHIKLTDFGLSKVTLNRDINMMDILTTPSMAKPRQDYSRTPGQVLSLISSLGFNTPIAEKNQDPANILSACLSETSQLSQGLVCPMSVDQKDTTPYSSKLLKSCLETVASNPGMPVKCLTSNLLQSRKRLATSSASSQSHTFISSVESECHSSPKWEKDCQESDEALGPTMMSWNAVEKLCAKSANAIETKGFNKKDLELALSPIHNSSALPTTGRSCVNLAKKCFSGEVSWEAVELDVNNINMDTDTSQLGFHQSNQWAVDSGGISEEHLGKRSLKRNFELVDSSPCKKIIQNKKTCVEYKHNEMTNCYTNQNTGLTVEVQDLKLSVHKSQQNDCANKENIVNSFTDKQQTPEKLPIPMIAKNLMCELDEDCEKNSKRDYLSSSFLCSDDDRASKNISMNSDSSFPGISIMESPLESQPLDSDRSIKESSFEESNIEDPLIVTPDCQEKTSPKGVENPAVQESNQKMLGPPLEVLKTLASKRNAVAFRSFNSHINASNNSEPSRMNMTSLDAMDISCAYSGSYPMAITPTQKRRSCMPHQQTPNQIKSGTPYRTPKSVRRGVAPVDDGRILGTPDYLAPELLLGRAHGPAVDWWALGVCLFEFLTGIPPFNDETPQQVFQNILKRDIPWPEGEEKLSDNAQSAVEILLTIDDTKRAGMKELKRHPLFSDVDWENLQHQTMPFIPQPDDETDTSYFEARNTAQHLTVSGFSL
Experiment: HTRF-based kinase assay (HTRF KinEASE assay kit)
Format: biochemical
Details: HTRF; read-out: IC50(nM) MASTL activity
Counter-ions that a name gives are not always drawn.
Provide only the numeric value, understood in nM.

Below, each entry is followed by its recorded IC50 result.
Recorded IC50 (compound OCCNc1nc(Nc2cc(C3CC3)[nH]n2)c2ccccc2n1 [compound 4cf, hydrochloride] ): 893

Recorded IC50 (compound Fc1ccccc1C1=CCN(c2nc(Nc3cc(C4CC4)[nH]n3)c3ccccc3n2)CC1 [compound 6k] ): 406

Recorded IC50 (compound COc1ccc(CNc2nc(Nc3cc(C4CC4)[nH]n3)c3ccccc3n2)cc1 [compound 4cd] ): 476

Others:
Recorded IC50 (compound NC(=O)c1ccc(Nc2nc(Nc3cc(C4CC4)[nH]n3)c3ccccc3n2)cc1 [compound 4t] ): 198

Recorded IC50 (compound O=C(Nc1ccc(F)cc1)N1CCN(c2nc(Nc3cc(C4CC4)[nH]n3)c3ccccc3n2)CC1 [compound 12d] ): 832

Recorded IC50 (compound Cc1cccc(S(=O)(=O)N2CC3CC2CN3c2nc(Nc3cc(C4CC4)[nH]n3)c3ccccc3n2)c1 (stereo not shown) [compound 15t] ): 563

Recorded IC50 (compound O=S(=O)(c1cccc(C(F)(F)F)c1)N1CC2CC1CN2c1nc(Nc2cc(C3CC3)[nH]n2)c2ccccc2n1 (stereo not shown) [compound 15u] ): 269
